Entry source: ChEMBL document CHEMBL1201861

system: CAL-51; experiment: cells; assay type: functional, cell-based, Homo sapiens; conditions: Homo sapiens, CAL-51;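 further: human CAL-51 cell line, growth inhibition read out via a cell viability assay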
Description: SANGER: Inhibition of human CAL-51 cell growth in a cell viability assay.
READOUT KIND: IC50

>>> print(df.to_string())
                                   compound  readout_kind  test_result
0  C[C@]1(O)C[C@@H](c2nc(-c3ccc4ccc(-c5ccccc5)nc4c3)c3c(N)nccn32)C1          IC50    > 2.56 µM
1  O=C(c1cc(Cc2n[nH]c(=O)c3ccccc23)ccc1F)N1CCN(C(=O)C2CC2)CC1          IC50       > 5 µM
2  CC(=O)O[C@@H]1[C@@H](OC(C)=O)[C@@H](O)[C@H](Oc2c(-c3ccc(O)cc3)oc3cc(O)cc(O)c3c2=O)O[C@H]1C          IC50      > 10 µM
3  COc1ccc(C2=N[C@@H](c3ccc(Cl)cc3)[C@@H](c3ccc(Cl)cc3)N2C(=O)N2CCNC(=O)C2)c(OC(C)C)c1          IC50       > 8 µM
4  C=CCc1cccc(/C=N/NC(=O)CN2CCN(Cc3ccccc3)CC2)c1O          IC50    > 2.56 µM
5  Cc1ccc(Nc2nccc(N(C)c3ccc4c(C)n(C)nc4c3)n2)cc1S(N)(=O)=O          IC50       > 8 µM
6                     COC(=O)CNC(=O)C(=O)OC          IC50       238 µM
7  Cn1cc(C2=C(c3ccc(Cl)cc3Cl)C(=O)NC2=O)c2ccccc21          IC50      > 10 µM
8  CCOc1nc(NC(=O)Cc2cc(OC)ccc2OC)cc(N)c1C#N          IC50      > 10 µM
9  COc1cc(F)c(F)c(Nc2ccc(I)cc2F)c1NS(=O)(=O)C1(CC(O)CO)CC1 (stereo not given)          IC50       > 5 µM
